Reported z-score values follow for various compounds
Test: JC-1 mitochondrial signal, unstimulated HepG2 cells – cell-based, JC-1 fluorescence, 24 h, 100 nL compound, profiling panel (AID 1167); also: test concentration not given here
Conditions: HepG2 mitochondrial potential, higher = more signal

COC(=O)[C@@]1(Cc2ccc(OC)cc2)[C@H]2c3cc(C(=O)N4CCCC4)n(CCc4ccc(O)c(OC)c4)c3C[C@H]2CN1C(=O)c1ccccc1 : -0.851
COCC(=C=CC[C@@H](O)c1ccccc1OCCO)C[C@@H](O)COCc1ccccc1 : 1.32
COCCOC(=O)N1C(=O)[C@@]2(c3cc(C#CC4(O)CCCCCC4)ccc31)[C@H](C(=O)N1CCN(c3ncccn3)CC1)[C@H]1C(=O)O[C@H](c3ccccc3)[C@H](c3ccccc3)N1[C@@H]2c1ccc(O)cc1 : -0.641
COCCCNC(=O)[C@]1(Cc2ccccc2)N=C(c2ccc(OCCCO)cc2)O[C@@H]1c1ccccc1N=[N+]=[N-] : 1.29
Cc1ccc(S[C@]2(C(=O)O)CC(=O)N(Cc3ccccc3C(F)(F)F)[C@@H]2c2ccc(CO)cc2)cc1 : 0.143
CC(C)C[C@@H]1NC(=O)[C@@H]2C[C@H](C(=O)NCCCC[N+](C)(C)C)[C@H](c3cccc(OCCO)c3)N2C1=O : -1.16

Q: I'd like to know its z-score. The compound in question is `O=C(Nc1cc(Br)ccc1C(=O)NCc1cccc(O)c1)c1ccccc1`
Ans: 0.386

Q: // lookup z-score for `CN(C)C(=O)[C@]1(Cc2ccccc2N=[N+]=[N-])N=C(c2ccc(OCCCO)cc2)O[C@@H]1c1ccccc1CN=[N+]=[N-]`
Ans: 0.38

Q: Value lookup for z-score; key = `CC(C)(C)OC(=O)CC[C@]1(C(=O)N2CCCCC2)N=C(c2ccc(OCCCO)cc2)O[C@H]1c1ccccc1CN=[N+]=[N-]`
Ans: 2.46

Q: z-score lookup needed for `C=C(CCCC)/C(=C/C[C@@H](OC(=O)c1ccncc1)c1ccccc1OCCO)c1cc(C(=O)OC)ccc1OC` , thanks.
Ans: 2.84

Q: Find the recorded z-score belonging to CC1CC/C=C\[C@H]2OC34C=CCN(Cc5ccccc5)C(=O)[C@H]3N(CCO)C(=O)[C@@H]4C2C(=O)O1 (some centres not stated) and report it.
Ans: 0.0673

---

Assay: compound effects on differentiated 3T3-L1 adipocyte viability – cell-based, 3T3-L1 adipocytes, calcein-AM fluorescence, 48 h, basal, profiling panel (AID 1163); also: test concentration not given here
Conditions: 3T3-L1 adipocytes viability, higher = more signal
Observation Type: z-score
Please reply with the number alone, leaving off any unit.

Q: Name the recorded z-score for CCCCC(O)C1C=CC2C(=O)N(Cc3ccccc3)C(=O)C2N1n1cnnc1 (stereo unspecified) .
Ans: 0.845

---

Reported composite z-score values for the following compounds.
Molecular target: Fibroblast growth factor 2 (Homo sapiens)
Test: basic fibroblast growth factor binding to printed compounds – biochemical, small-molecule microarray, 635/667 nm fluorescence, primary screen (AID 1133)
Details: FGF2, fluorescence 635/667, higher = more signal
Kindly provide the number alone.

Check out these entries, answers already filled in.
Cc1ccc(S[C@]2(C(=O)O)CC(=O)N(Cc3ccccc3C(F)(F)F)[C@@H]2c2ccc(CO)cc2)cc1 : -1.18
Cc1cc(C)c(C(O)C2C=CC3C(=O)N(c4ccccc4)C(=O)C3N2Nc2ccccc2)c(C)c1 (centres undefined) : 0.0968
O=C1C2C=CC(C(O)c3cccc4ccccc34)N(Nc3ccccc3)C2C(=O)N1c1ccccc1 (centres undefined) : 0.729
O=C(NCc1ccccc1)[C@]1(Cc2ccccc2)N=C(c2ccc(OCCCO)cc2)O[C@@H]1c1ccccc1 : -0.0759
COc1ccc([Si](C)(C)[C@H]2[C@H](CCO)O[C@@]3(C(=O)N(Cc4cccc(N5CCOC5=O)c4)c4ccccc43)[C@@H]2C)cc1 : 0.203
C=CCOc1ccc([C@@H]2CC=C(C(=O)OCC)[C@H](c3cccc(Br)c3)N2S(=O)(=O)c2ccc(C)cc2)cc1 : -0.0901
CCOC(=O)C[C@H]1[C@H](OC(=O)c2ccc(C(=O)c3ccccc3)cc2)[C@@H](NC(=O)C2CCCCC2)c2cc(OCCCO)ccc2N1C(=O)Cc1ccc(OC)cc1 : 0.0799
COc1cc2c(cc1OC)CN(C(=O)[C@@H]1[C@H]3C(=O)O[C@H](c4ccccc4)[C@H](c4ccccc4)N3[C@H](c3ccc(O)cc3)[C@@]13C(=O)Nc1ccc(C#CCNC(N)=O)cc13)CC2 : 0.302
C[N+](C)(C)CCCC[C@@H]1NC(=O)[C@@H]2C[C@H](C(=O)NCCCCCNC(=O)CS)[C@H](c3cccc(OCCO)c3)N2C1=O : 1.5
Cc1ccccc1C(O)C1C=CC2C(=O)N(Cc3ccccc3)C(=O)C2N1n1cnnc1 (centres undefined) : 0.188

Here is the next item to consider.
Q: What does the data say about its composite z-score? Entry: CN1C(=O)C2C=CC(C(O)COCc3ccccc3)N(Nc3ccccc3)C2C1=O (centres undefined)
Ans: -0.11
